IC50 for SIK1 (Homo sapiens), merged from several publications.

Solved cases (3 shown):
| compoundStructureString | IC50 |
| --- | --- |
| CCOc1ccccc1-c1n[nH]c2nccc(-c3ccsc3)c12 | > 1 µM |
| COc1cc(-c2c3c(C(F)F)cc(-c4cnn(CCC(C)(C)O)c4)cc3nn2C)cc(OC(F)F)c1C(=O)N[C@@H]1CC1(F)F | 0.0039 µM |
| COc1cc(-c2cnc3cc(OCCCN4CCC45COC5)ccn23)cc(OC(F)F)c1C(=O)NC1CC1 | 0.01 to 0.1 µM |

For the next question, use this molecule.
Qu. Give IC50; test system SIK1 (Homo sapiens); molecule "COc1cc(-c2cnc3cc(OC4CCC4)ccn23)cc(OC(F)F)c1C(=O)NC1CC1"
Ans. 0.01 to 0.1 µM

----------
pIC50 for SIK1 (Homo sapiens), merged from several publications.
pIC50: −log10 of the molar value.

Solved cases (3 shown):
| molecule | subjectOfTest | measuredAttribute | experimentalValue |
| --- | --- | --- | --- |
| COc1cc(-c2cnc3cc(OCCCN4CCC4)ccn23)cc(OC(F)F)c1C(=O)NC1CC1 | SIK1 (Homo sapiens) | pIC50 | 8.00 to 11.00 |
| COc1cc(-c2cnc3cc(OCC4CCCN4C)ccn23)cc(OC(F)F)c1C(=O)NC1CC1 (stereo not shown) | SIK1 (Homo sapiens) | pIC50 | 6.30 to 7.00 |
| COc1c(F)cccc1-c1c[nH]c2ncc(-c3ccc(CN4CCCC4)s3)cc12 | SIK1 (Homo sapiens) | pIC50 | < 6.00 |

Qu. Give pIC50; test system SIK1 (Homo sapiens); molecule "COc1cc(-c2cnc3cc(OCCCN4CCc5nc(C)sc5C4)ccn23)cc(OC(F)F)c1C(=O)NC1CC1"
Ans. 7.00 to 8.00

Qu. Give pIC50; test system SIK1 (Homo sapiens); molecule "CN1CCC(n2cc(-c3cnc4[nH]cc(-c5ccc6c(c5)OC(F)(F)O6)c4c3)cn2)CC1"
Ans. < 6.00

Qu. Give pIC50; test system SIK1 (Homo sapiens); molecule "COc1cc(-c2cnc3cc(OCCCN4CCC5(CC4)CN(C)C(=O)O5)ccn23)cc(OC(F)F)c1C(=O)NC1CC1"
Ans. 7.00 to 8.00

Qu. Give pIC50; test system SIK1 (Homo sapiens); molecule "COc1cc(-c2c3c(C#N)cc(-c4cnn(C)c4)cc3nn2C)cc(OC(F)F)c1C(=O)NCC1(F)CC1"
Ans. 7.91

----------
IC50 for SIK1 (Homo sapiens, UniProt P57059), merged from several publications.

Solved cases (6 shown):
| compound | IC50 |
| --- | --- |
| CCn1cc(-c2cc(C#N)c3c(-c4cc(OC)c(C(=O)N[C@@H]5C[C@@H]5F)c(OC(F)F)c4)n(C)nc3c2)cn1 | 1.4 nM |
| COc1ncccc1-c1c[nH]c2nccc(-c3ccsc3)c12 | > 100 nM |
| COc1cc(-c2cnc3cc(OCCNc4ncccn4)ccn23)cc(OC(F)F)c1C(=O)NC1CC1 | 0.01 to 10 nM |
| COc1cc(-c2cnc3cc(OCC4CCC(=O)N4)ccn23)cc(OC(F)F)c1C(=O)NC1CC1 (stereo not shown) | 0.01 to 10 nM |
| COc1cc(-c2cnc3cc(OCCCN4CCC(O)CC4)ccn23)cc(OC(F)F)c1C(=O)NC1CC1 | 10 to 100 nM |
| COc1cc(-c2cnc3cc(OCCCN4CCCC(C#N)C4)ccn23)cc(OC(F)F)c1C(=O)NC1CC1 (stereo not shown) | 10 to 100 nM |

Qu. Give IC50; test system SIK1 (Homo sapiens, UniProt P57059); compound COc1cc(-c2cnc3cc(OCCN4CCCC(C#N)C4)ccn23)cc(OC(F)F)c1C(=O)NC1CC1 (stereo not shown)
Ans. 0.01 to 10 nM
